Parameter: IC50. Scope: all listed entries.
# testedSystem: Brdt(BD1) (Homo sapiens, UniProt Q58F21)
# Construct: GST tagged bromodomain proteins were purchased from BPS Bioscience
# experiment: HTRF BET selectivity profile, Brdt(BD1)
experimentalEndpoint: IC50 (µM)

INSERT INTO assay_data (compound, experimentalendpoint, displayunit, recordedmeasurement) VALUES
  ('CCn1cnc2c1c(=O)[nH]c(=O)n2Cc1ccc(CNS(=O)(=O)c2cc3ccccc3s2)cc1 [Compound 25b]', 'IC50', 'µM', 7.44),
  ('Cc1noc(C)c1CCNC(=O)C1CCC(CNS(=O)(=O)c2ccc3c(c2)CCCC(=O)N3)CC1 (stereo not shown) [Compound 9a]', 'IC50', 'µM', 9.17),
  ('CCn1cnc2c1c(=O)[nH]c(=O)n2Cc1ccc(CNS(=O)(=O)c2ccc3scnc3c2)cc1 [Compound 25c]', 'IC50', 'µM', 14),
  ('CCn1cnc2c1c(=O)[nH]c(=O)n2Cc1ccc(CNS(=O)(=O)c2ccc(OCc3ccccc3)cc2)cc1 [Compound 31a]', 'IC50', 'µM', 8.51);

---

# testedSystem: Brd2(BD1) (Homo sapiens)
# Construct: GST tagged bromodomain proteins were purchased from BPS Bioscience; purchased BPS Bioscience
# experiment: HTRF BET selectivity profile, Brd2(BD1)
# Type: binding
experimentalEndpoint: IC50 (µM)

INSERT INTO assay_data (molecule, experimentalendpoint, displayunit, recordedmeasurement) VALUES
  ('CCn1c(CSc2nc3nc(C)cc(C)n3n2)nc2c1c(=O)[nH]c(=O)n2Cc1ccc(CNS(=O)(=O)c2ccc3c(c2)CCCC(=O)N3)cc1 [Compound 32b]', 'IC50', 'µM', 4.37);

---

Parameter: pIC50. Scope: all listed entries.
# testedSystem: BRD4(BD1) (Homo sapiens, UniProt O60885)
# experiment: HTRF assay, BRD4(BD1)/histone peptide interaction
# Type: binding
# Design: made in house
# experimentalConditions: HTRF; mean of three experiments; NA = IC50 > 50 μM; read-out: Brd4(8D1) IC50
pIC50: −log10 of the molar value.
experimentalEndpoint: pIC50

INSERT INTO results (compound, experimentalendpoint, recordedmeasurement) VALUES
  ('CCn1cnc2c1c(=O)[nH]c(=O)n2Cc1ccc(CNS(=O)(=O)c2cccc(-c3ccccc3)c2)cc1 [Compound 29c]', 'pIC50', 6.09),
  ('O=C1CCCc2cc(S(=O)(=O)NCC3CCC(C(=O)NCCc4cccs4)CC3)ccc2N1 (single isomer, unassigned)', 'pIC50', 5.42),
  ('O=C1CCCc2cc(S(=O)(=O)C3CCC(C(=O)NCCc4ccccn4)CC3)ccc2N1 (stereo not shown)', 'pIC50', 5.02),
  ('CCn1cnc2c1c(=O)[nH]c(=O)n2Cc1ccc(CNS(=O)(=O)c2ccc(-c3cc(C)n[nH]3)s2)cc1 [Compound 25a]', 'pIC50', 6.55),
  ('CCCCc1c(C)nc2nc(SCc3nc4c(c(=O)[nH]c(=O)n4Cc4ccc(CNS(=O)(=O)c5ccc6c(c5)CCCC(=O)N6)cc4)n3CC)nn2c1C [Compound 32c]', 'pIC50', 5.97),
  ('CCn1c(CSc2nc3nc(C)cc(C)n3n2)nc2c1c(=O)[nH]c(=O)n2Cc1ccc(CNS(=O)(=O)c2ccc3c(c2)CCCC(=O)N3)cc1 [Compound 32b]', 'pIC50', 6.01),
  ('CCn1cnc2c1c(=O)[nH]c(=O)n2Cc1ccc(CNS(=O)(=O)c2ccc(OCc3ccccc3)cc2)cc1 [Compound 31a]', 'pIC50', 6.45);

---

# testedSystem: Brd2(BD1) (Homo sapiens, UniProt P25440)
# Construct: GST tagged bromodomain proteins were purchased from BPS Bioscience; purchased BPS Bioscience
# Sequence (P25440 74-180 limits assumed): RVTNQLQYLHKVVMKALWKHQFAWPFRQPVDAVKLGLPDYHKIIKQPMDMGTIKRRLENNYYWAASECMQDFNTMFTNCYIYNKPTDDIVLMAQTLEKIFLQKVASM
# experiment: HTRF BET selectivity profile, Brd2(BD1)
# Assay type: binding
# experimentalConditions: read-out: Brd2(BD1) IC50
pIC50: −log10 of the molar value.
experimentalEndpoint: pIC50

INSERT INTO assay_data (compound, testedsystem, recordedmeasurement) VALUES
  ('CCn1cnc2c1c(=O)[nH]c(=O)n2Cc1ccc(CNS(=O)(=O)c2ccc(OCc3ccccc3)cc2)cc1 [Compound 31a]', 'Brd2(BD1) (Homo sapiens, UniProt P25440)', 5.84),
  ('CCn1cnc2c1c(=O)[nH]c(=O)n2Cc1ccc(CNS(=O)(=O)c2ccc3c(c2)CCC(=O)N3)cc1 [Compound 27b]', 'Brd2(BD1) (Homo sapiens, UniProt P25440)', 5.46),
  ('CCn1cnc2c1c(=O)[nH]c(=O)n2Cc1ccc(CNS(=O)(=O)c2ccc(-c3ccccc3)cc2)cc1 [Compound 29b]', 'Brd2(BD1) (Homo sapiens, UniProt P25440)', 5.48),
  ('Cc1noc(C)c1CCNC(=O)c1ccc(CNS(=O)(=O)c2ccc3c(c2)CCCC(=O)N3)cc1 [Compound 16a]', 'Brd2(BD1) (Homo sapiens, UniProt P25440)', 5.06),
  ('CCCCc1c(C)nc2nc(SCc3nc4c(c(=O)[nH]c(=O)n4Cc4ccc(CNS(=O)(=O)c5ccc6c(c5)CCCC(=O)N6)cc4)n3CC)nn2c1C [Compound 32c]', 'Brd2(BD1) (Homo sapiens, UniProt P25440)', 5.33),
  ('CCn1cnc2c1c(=O)[nH]c(=O)n2Cc1ccc(CNS(=O)(=O)c2ccn(-c3ccccc3)n2)cc1 [Compound 24b]', 'Brd2(BD1) (Homo sapiens, UniProt P25440)', 5.48),
  ('O=C1CCCc2cc(S(=O)(=O)NCC3CCC(C(=O)NCCc4cccs4)CC3)ccc2N1 (single isomer, unassigned) [Compound 5b]', 'Brd2(BD1) (Homo sapiens, UniProt P25440)', 5.20),
  ('O=C1CCCc2cc(S(=O)(=O)C3CCC(C(=O)NCCc4ccccn4)CC3)ccc2N1 (centres unmarked) [Compound 7a]', 'Brd2(BD1) (Homo sapiens, UniProt P25440)', 4.79),
  ('CCn1cnc2c1c(=O)[nH]c(=O)n2Cc1ccc(CNS(=O)(=O)c2ccc(N3CCOCC3)cc2)cc1 [Compound 45a]', 'Brd2(BD1) (Homo sapiens, UniProt P25440)', 6.49),
  ('CCn1cnc2c1c(=O)[nH]c(=O)n2Cc1ccc(CNS(=O)(=O)c2cc3ccccc3s2)cc1 [Compound 25b]', 'Brd2(BD1) (Homo sapiens, UniProt P25440)', 5.86),
  ('Cc1noc(C)c1CCNC(=O)C1CCC(CNS(=O)(=O)c2ccc3c(c2)CCCC(=O)N3)CC1 (centres unmarked) [Compound 9a]', 'Brd2(BD1) (Homo sapiens, UniProt P25440)', 4.99),
  ('CCn1cnc2c1c(=O)[nH]c(=O)n2Cc1ccc(CNS(=O)(=O)c2ccc(Oc3ccccc3)cc2)cc1 [Compound 30c]', 'Brd2(BD1) (Homo sapiens, UniProt P25440)', 6.06),
  ('CCn1cnc2c1c(=O)[nH]c(=O)n2Cc1ccc(CNS(=O)(=O)c2ccc(C(=O)N3CCOCC3)cc2)cc1 [Compound 44b]', 'Brd2(BD1) (Homo sapiens, UniProt P25440)', 6.45),
  ('CCn1cnc2c1c(=O)[nH]c(=O)n2Cc1ccc(CNS(=O)(=O)c2ccc(OC3CCOCC3)cc2)cc1 [Compound 43b]', 'Brd2(BD1) (Homo sapiens, UniProt P25440)', 6.59);

---

# testedSystem: BRD4(BD1) (Homo sapiens)
# experiment: HTRF assay, BRD4(BD1)/histone peptide interaction
# Assay type: binding
# Set-up: made in house
# experimentalConditions: HTRF; triplicates; NA = IC50 > maximal concentration of compound used
experimentalEndpoint: IC50

INSERT INTO assay_data (compound, recordedmeasurement) VALUES
  ('CCCCc1c(C)nc2nc(SCc3nc4c(c(=O)[nH]c(=O)n4Cc4ccc(CNS(=O)(=O)c5ccc6c(c5)CCCC(=O)N6)cc4)n3CC)nn2c1C [Compound 32c]', '1.1 µM'),
  ('CCn1cnc2c1c(=O)[nH]c(=O)n2Cc1ccc(CNS(=O)(=O)CCOC)cc1 [Compound 21b]', '5.2 µM'),
  ('CCn1cnc2c1c(=O)[nH]c(=O)n2Cc1ccc(CNS(=O)(=O)c2cccc(-c3ccccc3)c2)cc1 [Compound 29c]', '0.814 µM'),
  ('CCn1cnc2c1c(=O)[nH]c(=O)n2Cc1ccc(CNC(=O)[C@H](O)c2ccc(C)cc2)cc1 [Compound 35c]', '1.8 µM'),
  ('CCCC(=O)N1CCC(C(=O)NCc2ccc(Cn3c(=O)[nH]c(=O)c4c3ncn4CC)cc2)CC1 [Compound 34b]', '2.8 µM'),
  ('O=C1CCCc2cc(S(=O)(=O)N3CCC(C(=O)NCc4cccs4)CC3)ccc2N1 [Compound 11b]', '> 50 µM'),
  ('CCn1cnc2c1c(=O)[nH]c(=O)n2Cc1ccc(CNC(=O)CCC2CC2)cc1 [Compound 33b]', '4.7 µM'),
  ('O=C1CCCc2cc(S(=O)(=O)NCc3ccc(C(=O)NCc4cccnc4)cc3)ccc2N1 [Compound 14b]', '> 25 µM'),
  ('CCn1cnc2c1c(=O)[nH]c(=O)n2Cc1ccc(CNS(=O)(=O)c2ccn(-c3ccccc3)n2)cc1 [Compound 24b]', '0.846 µM'),
  ('CCn1cnc2c1c(=O)[nH]c(=O)n2Cc1ccc(CNS(=O)(=O)c2ccc3c(c2)CCC(=O)N3)cc1 [Compound 27b]', '0.766 µM'),
  ('O=C1CCCc2cc(S(=O)(=O)NCC3CCC(C(=O)NCc4ccncc4)CC3)ccc2N1 (stereo not drawn)', '30 µM'),
  ('CCCn1cc(C(=O)NCc2ccc(Cn3c(=O)[nH]c(=O)c4c3ncn4CC)cc2)cn1 [Compound 33c]', '4.5 µM'),
  ('COC(=O)C1CCC(CNS(=O)(=O)c2ccc3c(c2)CCCC(=O)N3)CC1 (stereo not drawn)', '53 µM'),
  ('CCn1cnc2c1c(=O)[nH]c(=O)n2Cc1ccc(CNS(=O)(=O)c2cn(C)c(C)n2)cc1 [Compound 23b]', '1.7 µM'),
  ('CCn1cnc2c1c(=O)[nH]c(=O)n2Cc1ccc(CNS(=O)(=O)c2ccc(-c3coc(C)n3)cc2)cc1 [Compound 30a]', '0.6 µM');
